Experiment: folding stability dG unfold (combined trypsin and chymotrypsin); higher = more stable
// folding stability dG unfold lookup, one value per entry

1) SAGGSMEVKVEVVKDEETKEYYVKVEIRDPKTKKTITLEYKVKEEDKEEALKKAKELAEELAKKGISAGGSA [r2_221_TrROS_Hall] : 3.48 kcal/mol
2) SAGMEVVEKIAKELGYENVKVESITPQVSPSGTTTLTITVKISKPGSTKTFTITASPEEIEEEIKKALSSAG [r5_549_JUSTAS] : 4.77 kcal/mol
3) SAGGSAGGPLVVGRGTFPDGFTADAELRVPDSSETFYRTIEPGASLDEIPENYEVANITLSPAGSAGGSAGG [r6_758_TrMRF] : -0.162 kcal/mol
4) SAGGMELVSRKRLSTSADGSVTYLYEYYDPKTGKRYTLVVTVKTPDGKIKPKVFTADSEEEAKKIALESAGG [r13_26_JUSTAS] : 1.34 kcal/mol
5) SAGGSAGGSAGGSMVTTKDPNSPVTYTLVPRPTPEELVVKTTTNPDGTPTVTLLPASLLSAGGSAGGSAGGS [r4_434_JUSTAS] : < -1 kcal/mol
6) SAGGKSVKVSLPKEALKKAKENEKVVITLPDGTKREAILVRGGDSVPVFVVNPDNPEEAEYVGEATVGSAGG [r13_745_TrMRF] : -0.0228 kcal/mol
7) SAGSSLNILLELETPEEAEKEAARIKEEIPKKGISVTVTIVSKEELEKLLKENVIELPNGSLKLVLFPSAGG [r19_187_JUSTAS] : 0.218 kcal/mol
8) SAGGSAGGSAGMKTLKTTTKVFPGTGVIVTESLVEFPNGSLKKLTKVTYVKNPNPSTTLASAGGSAGGSAGG [r17_41_JUSTAS] : 0.602 kcal/mol
9) ERDLIVIAGDDLTPEQLRELLEELGFRPEDAEIFREGDALLIVLPDAVILVVRPPPLPVLSEDDPELLEEAS [r1_57_TrMRF] : 3.19 kcal/mol
10) SSTTTTTTDPSGYTYSTTVTTHPDSTTTTTGRVTVEKVGDRPVARTTTTTTTVSPGGATTTTTSTTTTLPSA [r9_69_JUSTAS] : 0.0549 kcal/mol

# folding stability dG unfold lookup, item SAGGKKKVVIKVEVKNKKTGKTFEKEIVIEIDENETEEQILEKAKELAKKLAEENGLEVKIVEIKPLSAGGS [r8_312_TrROS_Hall]
4.43 kcal/mol

Likewise for SANGKEYTFTIEIRVRDPENGQPWTIRITVPIWYDPDDGKLDIDIDVTPTPGMPKEWAERIAKEIIEAISAG [r14_152_TrROS] ?
3.6 kcal/mol

Likewise for SAGGSAGGSAGGMLSGQVIEVTIPPERRLVRVEKLPSGDYLITIYRPDEPKPLETLRIRASAGGSAGGSAGG [r7_620_JUSTAS] ?
1.78 kcal/mol

Likewise for KMEIKIEVEKVKDEETGEEYIEVKIVVKKENVEEALEKVKKILEEEFNYEIVDVKVEKKDDYVVITVKIRLS [r1_337_TrROS_Hall] ?
2.89 kcal/mol

----------
Assay: folding stability dG unfold from trypsin proteolysis; higher = more stable
// folding stability dG unfold lookup, one value per entry

Example sequences with recorded folding stability dG unfold:
1. SAGGLGTDSTVPTLTLSVPVLVPTADGSPRELTVRVTIRAPVRLNPPTGELEIGDVEVSVEVFDPSLLSAGG [r13_312_TrMRF] : 3.03 kcal/mol
2. SAGGSAGGMVIHEIEVESPDPEKAEEEAKARAEEIRKALEEEEGGIPGEVKFVPTPEEDPLLLLSAGGSAGG [r6_23_JUSTAS] : 1.99 kcal/mol
3. SAYRIEIEIPSPKLAKKLEALLPPNYRIDNVRRNKNDNQVKITVEYDPGMPPSRMRRIHKEIKELIKELSAG [r14_306_TrROS] : 1.24 kcal/mol

Now let's try a different one.
# folding stability dG unfold lookup, item SAGGSAGGSAGAANDPKKIPIHIFPPDGKPIFKVKIEVYDNGIKIKIEWHPSPDGLYPMISAGGSAGGSAGG [r11_874_TrROS]
1.9 kcal/mol

Values were extracted from the supplement of paper PMC12764529.
